Test Target: full-length human RORγt (Homo sapiens (Human), UniProt P51449)
Sequence (P51449 other isoform, or with tags, fused parts or gaps): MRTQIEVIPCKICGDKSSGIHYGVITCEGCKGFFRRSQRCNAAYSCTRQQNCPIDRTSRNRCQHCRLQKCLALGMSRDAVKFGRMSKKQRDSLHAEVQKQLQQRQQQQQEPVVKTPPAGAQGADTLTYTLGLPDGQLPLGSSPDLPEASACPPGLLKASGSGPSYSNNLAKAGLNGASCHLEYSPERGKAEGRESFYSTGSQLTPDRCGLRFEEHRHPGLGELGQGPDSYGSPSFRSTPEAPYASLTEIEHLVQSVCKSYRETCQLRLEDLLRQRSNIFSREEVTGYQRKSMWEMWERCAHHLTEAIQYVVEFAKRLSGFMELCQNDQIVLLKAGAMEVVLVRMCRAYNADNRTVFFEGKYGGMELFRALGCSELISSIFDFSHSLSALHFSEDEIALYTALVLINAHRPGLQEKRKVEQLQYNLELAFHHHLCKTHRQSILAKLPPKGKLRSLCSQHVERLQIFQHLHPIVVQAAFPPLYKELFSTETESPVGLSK
Assay Text: RORγt (full-length human) reporter assay, conditions A or B, HEK293T cells
Type: cell-based
Run Parameters: RORγt (FL) Reporter Assay A or B, IC50, HEK293T cells
pIC50: −log10 of the molar value.
Use true (1) when the recorded pIC50 is no lower than 8; use false (0) when it is lower.

compound="Cn1nc(C(=O)NC[C@]2(O)CC[C@@H](S(C)(=O)=O)C[C@H]2O)c(Cl)c1-c1ccc(CCCC(F)(F)F)cc1OC(F)F (stereo in doubt) [Example 160]" assigned_category="false (0)"
compound="CCc1c(C(=O)NC[C@H]2CC[C@H](S(C)(=O)=O)CC2)nn(CC)c1-c1ccc(N[C@H](C)C(F)(F)F)cc1OC [Example 130]" assigned_category="false (0)"
compound="CCn1nc(C(=O)NC[C@]2(O)CC[C@@H](S(C)(=O)=O)C[C@H]2O)c(Cl)c1-c1ccc(CC(C)(C)C(F)(F)F)cc1OC(F)F (single isomer, unassigned) [Example 46]" assigned_category="true (1)"

Kindly review the next compound as well.
Is it the case that CCn1nc(C(=O)NC[C@]2(O)CC[C@@H](S(C)(=O)=O)CC2)c(C)c1-c1ccc(CCC(F)(F)F)cc1OC(F)F [Example 223] has pIC50 reaching or exceeding 8? true (1)

Where do the numbers come from? From patent US10975037B2.
